Sourced from patent US20110135636A1

Can you tell me % inhibition for the items I'm about to list?
- TESTED TARGET: T1, recombinant human EGFR extracellular domain with 6xHis (human, UniProt P00533 25-645)
- T1 construct: In-house produced; also called 6xHis EGFR ECD; soluble human EGFR ECD; not shown: 6xHis tag
- TEST SUMMARY: SPR competition, competitor Ab-3
# value in %; strip the unit string

Problem: Give its % inhibition value. Item: antibody 1320 (antibody, human IgG1, kappa, V domains shown, Chimeric IgG1 kappa) VH: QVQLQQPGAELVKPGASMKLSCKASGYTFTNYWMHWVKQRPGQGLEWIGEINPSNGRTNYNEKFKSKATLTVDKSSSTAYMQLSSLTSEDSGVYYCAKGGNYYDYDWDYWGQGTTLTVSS VL: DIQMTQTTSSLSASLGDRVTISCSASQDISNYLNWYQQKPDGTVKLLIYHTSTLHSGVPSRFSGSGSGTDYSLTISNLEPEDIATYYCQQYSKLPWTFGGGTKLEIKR
Solution: 2

Problem: Give its % inhibition value. Item: antibody 1260 (antibody, human IgG1, kappa, V domains shown, Chimeric IgG1 kappa) VH: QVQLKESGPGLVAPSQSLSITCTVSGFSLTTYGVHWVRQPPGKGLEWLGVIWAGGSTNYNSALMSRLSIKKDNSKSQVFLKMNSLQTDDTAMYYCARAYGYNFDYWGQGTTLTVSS VL: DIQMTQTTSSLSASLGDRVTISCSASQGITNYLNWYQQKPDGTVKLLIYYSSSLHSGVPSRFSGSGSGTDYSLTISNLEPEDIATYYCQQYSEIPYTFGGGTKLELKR
Solution: 64

Problem: Give its % inhibition value. Item: antibody 1344 (antibody, human IgG1, kappa, V domains shown, Chimeric IgG1 kappa) VH: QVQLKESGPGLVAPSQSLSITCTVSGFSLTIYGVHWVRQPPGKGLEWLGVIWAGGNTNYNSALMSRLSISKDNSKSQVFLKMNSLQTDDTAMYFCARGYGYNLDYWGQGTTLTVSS VL: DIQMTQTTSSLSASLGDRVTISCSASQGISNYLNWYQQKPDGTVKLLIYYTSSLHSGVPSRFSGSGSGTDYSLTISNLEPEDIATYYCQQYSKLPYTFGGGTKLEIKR
Solution: 25

Problem: Give its % inhibition value. Item: antibody 1208 (antibody, human IgG1, kappa, V domains shown, Chimeric IgG1 kappa; also called clone 1208) VH: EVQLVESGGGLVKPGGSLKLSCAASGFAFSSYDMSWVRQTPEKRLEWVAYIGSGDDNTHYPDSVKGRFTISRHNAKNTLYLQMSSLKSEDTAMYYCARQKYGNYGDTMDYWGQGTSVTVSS VL: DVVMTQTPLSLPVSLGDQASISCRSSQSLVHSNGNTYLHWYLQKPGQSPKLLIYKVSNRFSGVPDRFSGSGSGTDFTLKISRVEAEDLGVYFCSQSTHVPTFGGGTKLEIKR
Solution: 5

Problem: Give its % inhibition value. Item: antibody 1284 (antibody, human IgG1, kappa, V domains shown, Chimeric IgG1 kappa) VH: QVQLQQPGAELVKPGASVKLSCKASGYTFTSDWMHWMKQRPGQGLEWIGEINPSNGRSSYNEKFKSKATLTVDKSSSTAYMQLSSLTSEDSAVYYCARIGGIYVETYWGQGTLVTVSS VL: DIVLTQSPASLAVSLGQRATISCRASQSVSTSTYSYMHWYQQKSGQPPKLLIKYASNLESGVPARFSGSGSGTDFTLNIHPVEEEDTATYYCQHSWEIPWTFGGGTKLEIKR
Solution: 9
